Test system: Plasmodium falciparum
Assay: Primary screen in NF54 nanoGlo assay, in single point, at 2uM, 72h; a lower Z score goes with more inhibition
Assay type: functional, Erythrocyte
Conditions: timepoint 72 hour
In all, about 150,000 compounds went through this assay and about 540 (0.36%) showed an effect of 50% or more. What follows is part of a selection rich in strong results, with near analogues and random picks from the rest.
Respond with T for Z score values of 0.2 and above, F for values below.

molecule	discrete label
Cc1ccccc1C(=O)N1[C@H](C(=O)NC2CC2)COC12CCN(C(=O)c1ccc(F)cc1)CC2	T
CCC(=O)N1CCC(NCc2csc3ccccc23)C(CC)C1 (stereo not given)	T
CC1CC(C(=O)N2CCN(C(=O)Cc3c[nH]c4ccccc34)CC2)C1 (stereo not given)	T
OC(CN1CCOC2CCCCC21)Cn1cccn1 (stereo not given)	T

Alright, here's another molecule for you.
Req: Determine whether this molecule has Z score no lower than 0.2: C=C1C(C)C2C(Cc3c[nH]c4ccccc34)NC(=O)C23C(=O)CC(O)C(O)CC(C)C/C=C/C3C1O (stereo not given)
Resp: F
